Please respond with reported ED50 for every item in the list.
test system: Streptococcus pneumoniae; assay: In vivo protection against gram-positive Streptococcus pneumonia (SV-1) in mouse after subcutaneous administration; type: functional; settings: sc, read-out: PD50
One number for each entry, in mg/kg.

The following molecules have reported results that may help.
>  <molecule>
CN1CC2C[C@@H]1CN2c1nc2c(cc1F)c(=O)c(C(=O)O)cn2C1CC1.Cl

>  <target>
Streptococcus pneumoniae

>  <ED50 / mg/kg>
25

$$$$
>  <molecule>
O=C(O)c1cn(C2CC2)c2cc(N3CCN4CCC3C4)c(F)cc2c1=O (centres undefined)

>  <target>
Streptococcus pneumoniae

>  <ED50 / mg/kg>
11

$$$$
>  <molecule>
O=C(O)c1cn(C2CC2)c2cc(N3CC4CCCC3CN4)c(F)cc2c1=O (centres undefined)

>  <target>
Streptococcus pneumoniae

>  <ED50 / mg/kg>
6.6

$$$$

Proceed to the following item.
I'd like to know its ED50. The molecule in question is Nc1c(F)c(N2CC3CCCC2CN3)c(F)c2c1c(=O)c(C(=O)O)cn2C1CC1 (centres undefined) 6.3
